This collection of values is drawn from ChEMBL document CHEMBL1122255.

- TARGET_ENTITY: Alpha-1A adrenergic receptor (Bos taurus, UniProt P18130)
- Sequence (P18130 whole entry): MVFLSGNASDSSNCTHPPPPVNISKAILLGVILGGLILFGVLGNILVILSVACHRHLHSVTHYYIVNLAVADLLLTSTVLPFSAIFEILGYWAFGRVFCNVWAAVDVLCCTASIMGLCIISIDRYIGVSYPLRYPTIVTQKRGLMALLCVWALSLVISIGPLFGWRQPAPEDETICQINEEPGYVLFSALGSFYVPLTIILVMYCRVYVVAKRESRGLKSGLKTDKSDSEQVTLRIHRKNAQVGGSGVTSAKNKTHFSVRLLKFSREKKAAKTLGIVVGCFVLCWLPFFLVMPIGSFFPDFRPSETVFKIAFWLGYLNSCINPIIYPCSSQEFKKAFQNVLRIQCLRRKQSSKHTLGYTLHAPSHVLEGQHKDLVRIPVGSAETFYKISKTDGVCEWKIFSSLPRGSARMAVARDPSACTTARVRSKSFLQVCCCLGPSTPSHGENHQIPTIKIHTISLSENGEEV
- PROCEDURE_TEXT: Displacement of [3H]- prazosin radioligand binding at the alpha 1-adrenergic binding site of calf cerebral cortex
Ki: recorded values

SMILES_RECORD	Ki, nM
CN1CCC(=C2c3cc(Br)ccc3C=Cn3cccc32)CC1	19
CN1CCC(=C2c3cc(Cl)ccc3CCn3cccc32)CC1	80
CN1CCC(=C2c3cc(SC(F)(F)F)ccc3C=Cn3cccc32)CC1	13
CN1CCC(=C2c3ccccc3C=Cn3cccc32)CC1	29
CN1CCC(=C2c3ccccc3CCn3cccc32)CC1	130
CN1CCC(=C2c3cc(Cl)ccc3C=Cn3cccc32)CC1	20
CN1CCC(=C2c3cc(C#N)ccc3C=Cn3cccc32)CC1	30
CN1CCC(=C2c3cc(SC(F)(F)F)ccc3CCn3cccc32)CC1	36
CN1CCC(=C2c3cc(Br)ccc3CCn3cccc32)CC1	44
CN1CCC(=C2c3cc(C(=O)O)ccc3C=Cn3cccc32)CC1	1200

====

- TARGET_ENTITY: Muscarinic acetylcholine receptor
- PROCEDURE_TEXT: Displacement of [3H]- QNB binding at the muscarinic-cholinergic binding site of rat brain S1

SMILES_RECORD	OPERATOR	Ki (nM)
CN1CCC(=C2c3ccccc3C=Cc3ccccc32)CC1	=	4
CN1CCC(=C2c3cc(Br)ccc3C=Cn3cccc32)CC1	=	18
CN1CCC(=C2c3cc(C#N)ccc3C=Cn3cccc32)CC1	=	21
CN1CCC(=C2c3cc(Cl)ccc3CCn3cccc32)CC1	=	48
CN1CCC(=C2c3cc(SC(F)(F)F)ccc3C=Cn3cccc32)CC1	=	88
CN1CCC(=C2c3ccccc3C=Cn3cccc32)CC1	=	14.5
CN1CCC(=C2c3cc(SC(F)(F)F)ccc3CCn3cccc32)CC1	=	250
CN1CCC(=C2c3cc(C(=O)O)ccc3C=Cn3cccc32)CC1	=	9800
CN1CCC(=C2c3cc(C(=O)O)ccc3CCn3cccc32)CC1	>	50000
CN1CCC(=C2c3cc(Br)ccc3CCn3cccc32)CC1	=	60
CN1CCC(=C2c3cc(C#N)ccc3CCn3cccc32)CC1	=	270
CN1CCC(=C2c3cc(Cl)ccc3C=Cn3cccc32)CC1	=	20
CN1CCC(=C2c3ccccc3CCn3cccc32)CC1	=	49

====

- TARGET_ENTITY: Alpha-2A adrenergic receptor (Bos taurus, UniProt Q28838)
- Sequence (Q28838 whole entry): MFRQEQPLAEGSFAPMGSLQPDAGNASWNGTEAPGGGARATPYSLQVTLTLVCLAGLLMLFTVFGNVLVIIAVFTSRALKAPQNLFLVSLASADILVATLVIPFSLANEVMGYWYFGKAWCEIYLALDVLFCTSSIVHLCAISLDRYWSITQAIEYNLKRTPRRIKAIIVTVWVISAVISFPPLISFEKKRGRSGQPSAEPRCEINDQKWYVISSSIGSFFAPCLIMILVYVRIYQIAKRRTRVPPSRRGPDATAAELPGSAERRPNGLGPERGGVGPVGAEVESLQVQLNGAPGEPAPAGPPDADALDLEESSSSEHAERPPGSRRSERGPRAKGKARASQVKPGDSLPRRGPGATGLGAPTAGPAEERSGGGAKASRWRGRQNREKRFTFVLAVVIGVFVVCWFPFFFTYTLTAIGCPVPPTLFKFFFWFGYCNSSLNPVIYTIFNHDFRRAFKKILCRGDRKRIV
- PROCEDURE_TEXT: Displacement of [3H]- clonidine radioligand binding at the alpha-2 adrenergic receptor binding site of calf cerebral cortex
- Assay type: tissue-based
pKi: −log10 of the molar value.
PARAMETER: pKi

SMILES_RECORD	PARAMETER	READOUT_VALUE
CN1CCC(=C2c3cc(SC(F)(F)F)ccc3C=Cn3cccc32)CC1	pKi	6.64
CN1CCC(=C2c3ccccc3CCn3cccc32)CC1	pKi	6.14
CN1CCC(=C2c3cc(Br)ccc3CCn3cccc32)CC1	pKi	6.37
CN1CCC(=C2c3cc(C(=O)O)ccc3C=Cn3cccc32)CC1	pKi	4.11
CN1CCC(=C2c3cc(C#N)ccc3CCn3cccc32)CC1	pKi	5.69
CN1CCC(=C2c3cc(SC(F)(F)F)ccc3CCn3cccc32)CC1	pKi	6.48
CN1CCC(=C2c3cc(Cl)ccc3C=Cn3cccc32)CC1	pKi	6.51
CN1CCC(=C2c3cc(Cl)ccc3CCn3cccc32)CC1	pKi	6.22
CN1CCC(=C2c3cc(C#N)ccc3C=Cn3cccc32)CC1	pKi	5.99
CN1CCC(=C2c3cc(Br)ccc3C=Cn3cccc32)CC1	pKi	6.68
CN1CCC(=C2c3ccccc3C=Cn3cccc32)CC1	pKi	6.65
